Assay: Cytotoxicity assay (CellTiter Glo) on colon epithelial carcinoma cells
Details: human, Caco-2
CC50 at 48 h overview
Use µM as the unit, but write only the number.

Answered cases to consult:
Please report CC50 at 48 h for the following molecule: Oc1ccccc1/C=N/Nc1nc(Nc2ccc(F)cc2)nc(N2CCOCC2)n1
3

Determine its reported CC50 at 48 h: Cc1cccc(/C=N/Nc2cc(Nc3ccc(F)cc3)nc(N3CCOCC3)n2)c1 [Compound 21b]
113

API: the following record is the query input.
Name the recorded CC50 at 48 h of the molecule listed here: Cc1cccc(/C=N/Nc2cc(Nc3ccc(F)cc3)nc(Nc3ccc(F)cc3)c2)c1 [Compound 33b]
11
